Ref: ChEMBL document CHEMBL3259550

Species: Papio papio
Assay: Inhibition of MAO-B in baboon liver mitochondrial fraction using MMTP substrate at 300 uM
The source made the active and inactive calls. The calls are words filed in the database; no cut-off is given here.
quantity: inhibition

{"columns": ["compound", "recorded.result"],
 "data": [
  ["C#CCN", "19.9%"],
  ["C#CCN1C2C3C4CC5C6C4C2C6C1(O)C53 (racemic)", "5.83%"],
  ["C#CCN(C)[C@H](C)Cc1ccccc1", "93.3%"],
  ["c1ccc(CNC23OC4C5C6CC(C7C6C4C72)C53)cc1 (stereo unspecified)", "14.6%"],
  ["OC1(C#Cc2ccccc2)C2C3CC4C5C3CC2C5C41 (racemic)", "73.3%"],
  ["C#CCN(Cc1ccccc1)C12CC3CC(CC(C3)C1)C2", "20.1%"],
  ["C#CCNC12OC3C4C5CC(C6C5C3C61)C42 (racemic)", "inactive"],
  ["C#CCN1C2C3C4CC5C6C4C2C6(C)C1(O)C53 (racemic)", "10.8%"],
  ["C#CCNC12OC3C4C5CC(C6C5C3(C)C61)C42 (racemic)", "11.7%"],
  ["C#CC12OC3(O)C4C5CC(C6C5C3(C)C61)C42 (racemic)", "inactive"],
  ["C#CCN(CC#C)C12CC3CC(CC(C3)C1)C2", "14%"]
]}
